meta.source: patent US20240366809A1

Exercise: for every item that follows, state its recorded radiation dose estimate, Urinary Bladder Wall.
test system: human organs; assay: Absorbed doses of radiation, estimates for human organs (OLINDA software); conditions: human organ: Urinary Bladder Wall
Give bare numbers, in mSv/MBq.

Answered examples (3):
INSERT INTO results (molecule, target_of_assay, unit_spec, experimental_result) VALUES
  ('O=C([O-])CN1CCN(CC(=O)[O-])CCN(CC(=O)NCC2CCC(C(=O)N[C@@H](Cc3ccc4ccccc4c3)C(=O)NCCCC[C@H](NC(=O)N[C@@H](CCC(=O)O)C(=O)O)C(=O)O)CC2)CCN(CC(=O)[O-])CC1.[68Ga+3] (stereo partly shown) [^68Ga-PSMA-617, reference compound]', 'human organs', 'mSv/MBq', '5.54E−03'),
  ('O=C([O-])CN1CCN(CC(=O)[O-])CCN(CC(=O)N2CCO[C@]3(CC[C@H](C(=O)N[C@@H](Cc4ccc5ccccc5c4)C(=O)NCCCC[C@H](NC(=O)N[C@@H](CCC(=O)O)C(=O)O)C(=O)O)CC3)C2)CCN(CC(=O)[O-])CC1.[177Lu+3] [^177Lu-v]', 'human organs', 'mSv/MBq', '9.14E−04'),
  ('O=C([O-])CN1CCN(CC(=O)[O-])CCN(CC(=O)NCC2CCC(C(=O)N[C@@H](Cc3ccc4ccccc4c3)C(=O)NCCCC[C@H](NC(=O)N[C@@H](CCC(=O)O)C(=O)O)C(=O)O)CC2)CCN(CC(=O)[O-])CC1.[177Lu+3] (stereo partly shown) [^177Lu-PSMA-617, reference compound]', 'human organs', 'mSv/MBq', '7.53E−04');

Could you please provide reported radiation dose estimate, Urinary Bladder Wall for O=C([O-])CN1CCN(CC(=O)[O-])CCN(CC(=O)N2CCO[C@]3(CC[C@H](C(=O)N[C@@H](Cc4ccc5ccccc5c4)C(=O)NCCCC[C@H](NC(=O)N[C@@H](CCC(=O)O)C(=O)O)C(=O)O)CC3)C2)CCN(CC(=O)[O-])CC1.[68Ga+3] [^68Ga-v] ? Thanks!
2.27E−03

###

tested on: human organs; test: Absorbed doses of radiation, estimates for human organs (OLINDA software); conditions: human organ: Spleen
Property name: radiation dose estimate, Spleen (mSv/MBq)
Answers are plain numbers, in mSv/MBq.

Solved cases (3 shown):
INSERT INTO results (compound, target_of_assay, property_name, unit_spec, experimental_result) VALUES
  ('O=C([O-])CN1CCN(CC(=O)[O-])CCN(CC(=O)N2CCO[C@]3(CC[C@H](C(=O)N[C@@H](Cc4ccc5ccccc5c4)C(=O)NCCCC[C@H](NC(=O)N[C@@H](CCC(=O)O)C(=O)O)C(=O)O)CC3)C2)CCN(CC(=O)[O-])CC1.[177Lu+3] [^177Lu-v]', 'human organs', 'radiation dose estimate, Spleen', 'mSv/MBq', '6.84E−01'),
  ('O=C([O-])CN1CCN(CC(=O)[O-])CCN(CC(=O)N2CCO[C@]3(CC[C@H](C(=O)N[C@@H](Cc4ccc5ccccc5c4)C(=O)NCCCC[C@H](NC(=O)N[C@@H](CCC(=O)O)C(=O)O)C(=O)O)CC3)C2)CCN(CC(=O)[O-])CC1.[68Ga+3] [^68Ga-v]', 'human organs', 'radiation dose estimate, Spleen', 'mSv/MBq', '5.13E−02'),
  ('O=C([O-])CN1CCN(CC(=O)[O-])CCN(CC(=O)NCC2CCC(C(=O)N[C@@H](Cc3ccc4ccccc4c3)C(=O)NCCCC[C@H](NC(=O)N[C@@H](CCC(=O)O)C(=O)O)C(=O)O)CC2)CCN(CC(=O)[O-])CC1.[68Ga+3] (stereo partly shown) [^68Ga-PSMA-617, reference compound]', 'human organs', 'radiation dose estimate, Spleen', 'mSv/MBq', '1.79E−01');

Let's switch to this compound now.
Check the records and state radiation dose estimate, Spleen for O=C([O-])CN1CCN(CC(=O)[O-])CCN(CC(=O)NCC2CCC(C(=O)N[C@@H](Cc3ccc4ccccc4c3)C(=O)NCCCC[C@H](NC(=O)N[C@@H](CCC(=O)O)C(=O)O)C(=O)O)CC2)CCN(CC(=O)[O-])CC1.[177Lu+3] (stereo partly shown) [^177Lu-PSMA-617, reference compound]
9.86E−01
